Hello, the source for this data is ChEMBL document CHEMBL4706552, in case you need it.

assay: Half life in Sprague-Dawley rat at 10 mg/kg, po; type: ADME, organism-based; conditions: in vivo
assay.readout: half-life (h)
Quick reminder: number only, in h, skip the unit.

Please report the recorded half-life for `Cc1ccc(C(=O)Nc2ccc(CN3CCN(C)CC3)c(C(F)(F)F)c2)cc1Oc1nc(-c2cccnc2)nc2[nH]ncc12` .
7.59

* * *

molecular target: Proto-oncogene tyrosine-protein kinase receptor Ret (Homo sapiens); assay: Inhibition of recombinant wild-type human N-terminal GST-HIS6 fused RET C-terminal domain (H658 to S1114 residues) expressed in Sf9 insect cells using TRK-C-derived peptide as substrate in presence of [33P]-ATP by filter binding assay
Sequence (P07949 whole entry, the tested form may be a part): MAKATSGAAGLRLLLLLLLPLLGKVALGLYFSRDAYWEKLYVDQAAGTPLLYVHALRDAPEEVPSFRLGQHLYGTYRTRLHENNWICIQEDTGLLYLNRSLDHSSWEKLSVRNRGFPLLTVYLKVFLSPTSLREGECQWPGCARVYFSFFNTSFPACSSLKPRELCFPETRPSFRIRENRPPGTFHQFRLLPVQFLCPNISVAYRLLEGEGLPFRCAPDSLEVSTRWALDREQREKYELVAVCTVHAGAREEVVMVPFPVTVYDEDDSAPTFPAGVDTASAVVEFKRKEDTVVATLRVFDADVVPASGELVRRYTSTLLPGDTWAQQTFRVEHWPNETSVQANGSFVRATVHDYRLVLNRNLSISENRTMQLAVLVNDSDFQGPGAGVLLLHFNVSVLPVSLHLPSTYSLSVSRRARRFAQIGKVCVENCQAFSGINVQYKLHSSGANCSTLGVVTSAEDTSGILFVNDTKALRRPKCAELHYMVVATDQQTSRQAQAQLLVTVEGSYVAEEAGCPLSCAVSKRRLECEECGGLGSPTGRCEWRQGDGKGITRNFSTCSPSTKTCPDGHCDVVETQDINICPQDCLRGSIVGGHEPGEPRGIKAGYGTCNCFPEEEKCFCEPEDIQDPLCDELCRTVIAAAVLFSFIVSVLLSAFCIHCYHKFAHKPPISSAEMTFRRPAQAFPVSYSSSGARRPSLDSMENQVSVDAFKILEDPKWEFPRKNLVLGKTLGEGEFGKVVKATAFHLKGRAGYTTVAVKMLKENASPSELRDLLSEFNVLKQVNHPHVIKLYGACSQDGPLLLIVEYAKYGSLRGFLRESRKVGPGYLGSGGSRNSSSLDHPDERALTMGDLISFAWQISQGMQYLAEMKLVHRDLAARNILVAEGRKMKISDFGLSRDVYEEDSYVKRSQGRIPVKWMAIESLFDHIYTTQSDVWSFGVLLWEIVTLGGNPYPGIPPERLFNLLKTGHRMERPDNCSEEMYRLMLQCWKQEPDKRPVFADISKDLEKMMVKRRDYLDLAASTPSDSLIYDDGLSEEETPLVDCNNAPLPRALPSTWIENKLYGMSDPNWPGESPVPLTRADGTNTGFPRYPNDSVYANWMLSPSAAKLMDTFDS
assay.readout: pIC50
Field pIC50 (float): negative decimal logarithm of the concentration in molar.

Please report the recorded pIC50 for `Cc1ccc(C(=O)Nc2ccc(CN3CCN(C)CC3)c(C(F)(F)F)c2)cc1Oc1nc(-c2cccnc2)nc2[nH]ncc12` .
8.40

* * *

tested on: Kinesin-1 heavy chain/ Tyrosine-protein kinase receptor RET (Homo sapiens), P07949+P33176 [V804M]; assay: Inhibition of KIF5B-RET V804M mutant fusion protein (unknown origin) expressed in mouse BaF3 cells assessed as reduction in cell proliferation measured after 48 hrs by MTS assay; format: cell-based
assay.readout: GI50 (nM)
Quick reminder: number only, in nM, skip the unit.

Some compounds with known GI50 results, for comparison:
smiles.notation: Cc1ccc(C(=O)Nc2ccc(CN3CCN(C)CC3)c(C(F)(F)F)c2)cc1Oc1nc(-c2ccsc2)nc2c1cnn2C
GI50 / nM: 564

smiles.notation: Cc1ccc(Oc2nc(-c3ccncc3)nc3c2cnn3C)cc1NC(=O)c1ccc(CN2CCN(C)CC2)c(C(F)(F)F)c1
GI50 / nM: 4210

In the following, a different compound is considered.
Please report the recorded GI50 for `Cc1ccc(C(=O)Nc2ccc(CN3CCN(C)CC3)c(C(F)(F)F)c2)cc1Oc1nc(-c2ccncc2)nc2c1cnn2C` .
90

* * *

biological target: Coiled-coil domain-containing protein 6/Tyrosine-protein kinase receptor RET (Homo sapiens) (UniProt P07949+Q16204); experiment: Inhibition of CCDC6-RET fusion protein (unknown origin) expressed in mouse BaF3 cells assessed as reduction in cell proliferation measured after 48 hrs by MTS assay; format: cell-based
Sequence (P07949 29-1114 limits assumed): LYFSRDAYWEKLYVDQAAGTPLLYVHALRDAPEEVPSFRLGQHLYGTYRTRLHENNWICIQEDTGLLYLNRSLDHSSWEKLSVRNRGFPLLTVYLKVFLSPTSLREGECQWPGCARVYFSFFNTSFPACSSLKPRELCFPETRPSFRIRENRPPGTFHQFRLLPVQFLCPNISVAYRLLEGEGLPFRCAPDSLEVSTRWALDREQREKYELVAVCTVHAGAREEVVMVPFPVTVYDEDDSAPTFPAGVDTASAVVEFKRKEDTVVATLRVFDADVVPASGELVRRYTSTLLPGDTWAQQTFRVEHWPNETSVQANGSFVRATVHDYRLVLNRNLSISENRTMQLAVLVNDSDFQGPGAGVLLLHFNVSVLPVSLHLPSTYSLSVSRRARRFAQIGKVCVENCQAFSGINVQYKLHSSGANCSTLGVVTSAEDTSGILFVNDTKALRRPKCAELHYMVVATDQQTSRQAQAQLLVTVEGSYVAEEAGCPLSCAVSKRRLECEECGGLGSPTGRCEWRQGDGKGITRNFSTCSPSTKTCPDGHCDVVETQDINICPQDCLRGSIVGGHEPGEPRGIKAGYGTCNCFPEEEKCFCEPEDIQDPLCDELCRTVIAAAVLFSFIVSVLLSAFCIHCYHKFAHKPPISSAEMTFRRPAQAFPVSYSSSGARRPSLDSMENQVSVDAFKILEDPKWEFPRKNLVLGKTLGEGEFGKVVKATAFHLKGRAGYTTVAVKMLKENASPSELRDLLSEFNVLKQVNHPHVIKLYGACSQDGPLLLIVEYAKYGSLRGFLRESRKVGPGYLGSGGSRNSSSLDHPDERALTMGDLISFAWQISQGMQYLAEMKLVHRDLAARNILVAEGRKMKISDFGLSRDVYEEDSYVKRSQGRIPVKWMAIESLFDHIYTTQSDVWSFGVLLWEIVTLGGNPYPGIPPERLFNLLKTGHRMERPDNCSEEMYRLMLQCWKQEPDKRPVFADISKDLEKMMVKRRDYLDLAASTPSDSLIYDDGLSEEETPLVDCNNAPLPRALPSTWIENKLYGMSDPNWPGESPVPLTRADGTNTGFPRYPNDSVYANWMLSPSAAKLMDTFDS
Sequence (Q16204 2-474 partner limits assumed): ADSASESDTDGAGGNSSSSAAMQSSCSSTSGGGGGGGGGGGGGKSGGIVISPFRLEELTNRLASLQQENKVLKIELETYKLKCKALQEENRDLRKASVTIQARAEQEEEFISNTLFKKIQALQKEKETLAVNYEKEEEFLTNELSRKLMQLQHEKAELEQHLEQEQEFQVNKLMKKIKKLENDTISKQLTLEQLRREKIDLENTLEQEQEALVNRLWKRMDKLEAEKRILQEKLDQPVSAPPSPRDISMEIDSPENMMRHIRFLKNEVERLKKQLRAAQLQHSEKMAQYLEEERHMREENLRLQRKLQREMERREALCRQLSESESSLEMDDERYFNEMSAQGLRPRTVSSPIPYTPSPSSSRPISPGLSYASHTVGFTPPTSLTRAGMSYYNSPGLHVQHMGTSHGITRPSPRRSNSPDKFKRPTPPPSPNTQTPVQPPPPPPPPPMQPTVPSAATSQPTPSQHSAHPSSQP
assay.readout: GI50 (µM)
Quick reminder: number only, in µM, skip the unit.

Some compounds with known GI50 results, for comparison:
smiles.notation: CN1CCN(Cc2ccc(C(=O)Nc3cc(Oc4nc(-c5ccncc5)nc5[nH]ncc45)ccc3Cl)cc2C(F)(F)F)CC1
assay.readout: GI50
reading: 0.013
--
smiles.notation: Cc1ccc(Oc2nc(-c3cccnc3)nc3c2cnn3C)cc1NC(=O)c1ccc(CN2CCN(C)CC2)c(C(F)(F)F)c1
assay.readout: GI50
reading: 4.17
--
smiles.notation: Cc1ccc(NC(=O)c2ccc(CN3CCN(C)CC3)c(C(F)(F)F)c2)cc1Oc1nc(-c2cccnc2)nc2c1cnn2C
assay.readout: GI50
reading: 0.477
--
smiles.notation: CN1CCN(Cc2ccc(C(=O)Nc3cc(Oc4nc(-c5ccncc5)nc5c4cnn5C)ccc3Cl)cc2C(F)(F)F)CC1
assay.readout: GI50
reading: 0.016
--
smiles.notation: CN1CCN(Cc2ccc(NC(=O)c3cc(Oc4nc(-c5cccnc5)nc5c4cnn5C)ccc3Cl)cc2C(F)(F)F)CC1
assay.readout: GI50
reading: 4.17
--
smiles.notation: Cc1ccc(Oc2nc(-c3ccncc3)nc3[nH]ncc23)cc1NC(=O)c1ccc(CN2CCN(C)CC2)c(C(F)(F)F)c1
assay.readout: GI50
reading: 0.004

In the following, a different compound is considered.
Please report the recorded GI50 for `Cc1ccc(C(=O)Nc2ccc(CN3CCN(C)CC3)c(C(F)(F)F)c2)cc1Oc1nc(-c2ccsc2)nc2c1cnn2C` .
0.449

* * *

assay: Cmax in Sprague-Dawley rat at 1 mg/kg, iv; assay type: ADME, organism-based; set-up: route intravenous, dose 1 mg/kg; conditions: in vivo
assay.readout: Cmax (ng/mL)
Quick reminder: number only, in ng/mL, skip the unit.

Please report the recorded Cmax for `Cc1ccc(C(=O)Nc2ccc(CN3CCN(C)CC3)c(C(F)(F)F)c2)cc1Oc1nc(-c2cccnc2)nc2[nH]ncc12` .
6100

* * *

GI50 reference
target: Kinesin-1 heavy chain/ Tyrosine-protein kinase receptor RET (Homo sapiens) (UniProt P07949+P33176); test: Inhibition of KIF5B-RET fusion protein (unknown origin) expressed in mouse BaF3 cells assessed as reduction in cell proliferation measured after 48 hrs by MTS assay; format: cell-based
Sequence (P07949 29-1114 limits assumed): as the sequence (P07949 29-1114 limits assumed) above
Sequence (P33176 2-963 partner limits assumed): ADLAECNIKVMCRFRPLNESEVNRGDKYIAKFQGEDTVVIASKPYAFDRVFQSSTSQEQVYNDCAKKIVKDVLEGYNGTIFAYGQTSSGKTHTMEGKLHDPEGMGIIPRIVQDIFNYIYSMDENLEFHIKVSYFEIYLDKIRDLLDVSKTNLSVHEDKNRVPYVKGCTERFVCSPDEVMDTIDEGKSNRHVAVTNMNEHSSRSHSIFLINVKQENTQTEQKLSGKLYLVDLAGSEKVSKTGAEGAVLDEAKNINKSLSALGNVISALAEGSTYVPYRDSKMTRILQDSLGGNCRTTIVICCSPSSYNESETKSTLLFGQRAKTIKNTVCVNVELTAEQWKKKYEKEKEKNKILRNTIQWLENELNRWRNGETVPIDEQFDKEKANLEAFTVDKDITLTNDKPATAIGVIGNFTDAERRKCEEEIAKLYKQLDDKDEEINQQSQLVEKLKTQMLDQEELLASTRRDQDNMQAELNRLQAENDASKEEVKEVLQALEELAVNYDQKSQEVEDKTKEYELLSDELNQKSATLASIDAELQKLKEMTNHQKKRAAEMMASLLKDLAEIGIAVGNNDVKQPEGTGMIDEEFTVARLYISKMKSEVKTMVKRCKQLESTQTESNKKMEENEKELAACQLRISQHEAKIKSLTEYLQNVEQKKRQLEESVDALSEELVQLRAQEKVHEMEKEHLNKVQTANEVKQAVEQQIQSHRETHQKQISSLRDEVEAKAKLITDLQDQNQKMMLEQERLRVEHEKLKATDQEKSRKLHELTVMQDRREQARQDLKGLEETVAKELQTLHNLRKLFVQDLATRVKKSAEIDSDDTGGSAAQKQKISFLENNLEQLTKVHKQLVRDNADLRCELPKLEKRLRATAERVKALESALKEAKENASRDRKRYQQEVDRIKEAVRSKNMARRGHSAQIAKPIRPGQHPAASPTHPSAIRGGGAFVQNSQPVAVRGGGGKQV
Quick reminder: number only, in nM, skip the unit.

Some compounds with known GI50 results, for comparison:
smiles.notation: CN1CCN(Cc2ccc(C(=O)Nc3cccc(Oc4nc(-c5cccnc5)nc5c4cnn5C)c3)cc2C(F)(F)F)CC1
assay.readout: GI50
unit.abbrev: nM
reading: 953
--
smiles.notation: Cc1ccc(NC(=O)c2ccc(CN3CCN(C)CC3)c(C(F)(F)F)c2)cc1Oc1nc(-c2ccncc2)nc2c1cnn2C
assay.readout: GI50
unit.abbrev: nM
reading: 469
--
smiles.notation: Cc1ccc(Oc2nc(-c3ccncc3)nc3c2cnn3C)cc1C(=O)Nc1ccc(CN2CCN(C)CC2)c(C(F)(F)F)c1
assay.readout: GI50
unit.abbrev: nM
reading: 440
--
smiles.notation: Cc1ccc(C(=O)Nc2ccc(CN3CCN(C)CC3)c(C(F)(F)F)c2)cc1Oc1nc(-c2ccncc2)nc2c1cnn2C(C)C
assay.readout: GI50
unit.abbrev: nM
reading: 915
--
smiles.notation: Cc1ccc(C(=O)Nc2ccc(CN3CCN(C)CC3)c(C(F)(F)F)c2)cc1Oc1nc(-c2cccnc2)nc2[nH]ncc12
assay.readout: GI50
unit.abbrev: nM
reading: 17

Please report the recorded GI50 for `Cc1ccc(C(=O)Nc2ccc(CN3CCN(C)CC3)c(C(F)(F)F)c2)cc1Oc1nc(-c2ccoc2)nc2c1cnn2C` .
14

Further, for `CN1CCN(Cc2ccc(NC(=O)c3cc(Oc4nc(-c5cccnc5)nc5c4cnn5C)ccc3Cl)cc2C(F)(F)F)CC1` ?
4020

* * *

log10 GI50 reference
target: Coiled-coil domain-containing protein 6/Tyrosine-protein kinase receptor RET (Homo sapiens) (UniProt P07949+Q16204); test: Inhibition of CCDC6-RET fusion protein (unknown origin) expressed in mouse BaF3 cells assessed as reduction in cell proliferation measured after 48 hrs by MTS assay; format: cell-based
Each number you see is log10 of GI50, and the unit inside the log is nM.

Some compounds with known log10 GI50 results, for comparison:
smiles.notation: Cc1ccc(NC(=O)c2ccc(CN3CCN(C)CC3)c(C(F)(F)F)c2)cc1Oc1nc(-c2ccncc2)nc2c1cnn2C
log10 GI50: 2.79
//
smiles.notation: CN1CCN(Cc2ccc(C(=O)Nc3cccc(Oc4nc(-c5ccncc5)nc5[nH]ncc45)c3)cc2C(F)(F)F)CC1
log10 GI50: 1.90
//
smiles.notation: Cc1ccc(C(=O)Nc2ccc(CN3CCN(C)CC3)c(C(F)(F)F)c2)cc1Oc1nc(-c2cccc(Cl)c2)nc2c1cnn2C
log10 GI50: 2.91
//
smiles.notation: Cc1ccc(Oc2nc(-c3ccncc3)nc3c2cnn3C)cc1NC(=O)c1ccc(CN2CCN(C)CC2)c(C(F)(F)F)c1
log10 GI50: 1.11
//
smiles.notation: CN1CCN(Cc2ccc(C(=O)Nc3cccc(Oc4nc(-c5cccnc5)nc5c4cnn5C)c3)cc2C(F)(F)F)CC1
log10 GI50: 3.05

Please report the recorded log10 GI50 for `Cc1ccc(C(=O)Nc2ccc(CN3CCN(C)CC3)c(C(F)(F)F)c2)cc1Oc1nc(-c2ccncc2)nc2[nH]ncc12` .
1.86

Further, for `Cc1ccc(Oc2nc(-c3ccncc3)nc3c2cnn3C)cc1C(=O)Nc1ccc(CN2CCN(C)CC2)c(C(F)(F)F)c1` ?
3.18

* * *

molecular target: Kinesin-1 heavy chain/ Tyrosine-protein kinase receptor RET (Homo sapiens) (UniProt P07949+P33176); experiment: Inhibition of KIF5B-RET fusion protein (unknown origin) expressed in mouse BaF3 cells assessed as reduction in cell proliferation measured after 48 hrs by MTS assay; type: cell-based
GI50 reference
Quick reminder: number only, in nM, skip the unit.

Some molecules with known GI50 results, for comparison:
smiles.notation: CN1CCN(Cc2ccc(C(=O)Nc3cc(Oc4nc(-c5ccncc5)nc5[nH]ncc45)ccc3Cl)cc2C(F)(F)F)CC1
GI50, nM: 22
//
smiles.notation: Cc1cn(-c2cc(NC(=O)c3ccc(C)c(Oc4nc(-c5ccncc5)nc5c4cnn5C)c3)cc(C(F)(F)F)c2)cn1
GI50, nM: 2620

Please report the recorded GI50 for `Cc1ccc(C(=O)Nc2ccc(CN3CCN(C)CC3)c(C(F)(F)F)c2)cc1Oc1nc(-c2ccc(Cl)cc2)nc2c1cnn2C` .
114

Further, for `Cc1ccc(C(=O)Nc2cc(CN3CCN(C)CC3)cc(C(F)(F)F)c2)cc1Oc1nc(-c2cccnc2)nc2c1cnn2C` ?
482

Further, for `Cc1ccc(C(=O)Nc2ccc(CN3CCN(C)CC3)c(C(F)(F)F)c2)cc1Oc1nc(-c2cccc(O)c2)nc2c1cnn2C` ?
28

Further, for `Cc1ccc(NC(=O)c2ccc(CN3CCN(C)CC3)c(C(F)(F)F)c2)cc1Oc1nc(-c2cccnc2)nc2c1cnn2C` ?
411
